# Test Target: T1, recombinant mature dimeric myostatin (human and mouse (mature sequences 100% …, UniProt O08689 268-376))
# T1 sequence: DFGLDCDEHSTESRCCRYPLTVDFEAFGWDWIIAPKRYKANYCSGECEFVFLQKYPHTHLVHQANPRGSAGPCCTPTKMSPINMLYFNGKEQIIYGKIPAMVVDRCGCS
# Protocol: cell-based or functional assay
Recorded IC50, myostatin responsive reporter gene neutralisation assay (A204), one value per entry.
Give the value, in units of nM, as a plain number.

{"columns": ["Binder", "Scale Unit", "Number"],
 "data": [
  ["H6L5 (antibody, IgG1, V domains shown) VH: QVQLVQSGAEVKKPGASVKISCKASGYSFTGYFMHWVRQAPGQGLEWIGNIYPYNGVSNYNQRFKAKATLTVDKSTSTAYMELRSLRSDDTAVYYCARRYYYGTGPADWYYDVWGQGTLVTVSS VL: DIQMTQSPSSLSASVGDRVTITCKASQDINSYLSWFQQKPGKAPKTLIYRANRLVDGVPSKFSGSGSGTDYTLTISSLQPEDFATYYCLQSDEFPLTFGQGTKLEIKR", "nM", 6],
  ["H4L4 (antibody, IgG1, V domains shown, Humanised IgG1/kappa) VH: QVQLVQSGAEVKKPGASVKVSCKASGYSFTGYFMHWVRQAPGQGLEWMGNIYPYNGVSNYNQRFKARVTMTVDKSTSTAYMELRSLRSDDTAVYYCARRYYYGTGPADWYYDVWGQGTLVTVSS VL: DIQMTQSPSSLSASVGDRVTITCKASQDINSYLSWFQQKPGKAPKSLIYRANRLVDGVPSKFSGSGSGQDYTLTISSLQPEDFATYYCLQSDEFPLTFGQGTKLEIKR", "nM", 7.9]
]}

Now let's try a different one.
The binder identified as H4L5 (antibody, IgG1, V domains shown, Humanised IgG1/kappa) VH: QVQLVQSGAEVKKPGASVKVSCKASGYSFTGYFMHWVRQAPGQGLEWMGNIYPYNGVSNYNQRFKARVTMTVDKSTSTAYMELRSLRSDDTAVYYCARRYYYGTGPADWYYDVWGQGTLVTVSS VL: DIQMTQSPSSLSASVGDRVTITCKASQDINSYLSWFQQKPGKAPKTLIYRANRLVDGVPSKFSGSGSGTDYTLTISSLQPEDFATYYCLQSDEFPLTFGQGTKLEIKR registered its IC50, myostatin responsive reporter gene neutralisation assay (A204) at 6.5
